Origin of the recorded values: patent US20150064204A1

Parameter: Proliferation (Fold over CD3). Scope: all listed entries.
# Tested target: T1, human GITR (human, UniProt Q9Y5U5 26-241)
# T1 sequence: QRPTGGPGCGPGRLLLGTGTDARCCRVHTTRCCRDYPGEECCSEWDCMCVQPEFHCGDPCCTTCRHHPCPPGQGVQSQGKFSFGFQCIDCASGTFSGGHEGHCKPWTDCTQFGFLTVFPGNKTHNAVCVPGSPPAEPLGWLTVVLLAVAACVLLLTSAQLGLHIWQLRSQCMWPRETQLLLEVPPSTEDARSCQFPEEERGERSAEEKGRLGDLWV
# Assay explanation: cell-based or functional assay
Write it as a number; the unit fold over CD3 goes unstated.

{"Binder": "7A10v3 (antibody, human IgG1, kappa, V domains shown, Engineered variant; also called Ab41; SS-16939) VH: QVQLVESGGGVVQPGRSLRLSCAASGFTFSSYGMHWVRQAPGKGLEWMAVIWYVGSNKYYAESVKGRFTISRDNSKNTLYLQMNSLRAEDTAVYYCARGGELGRDYYSGMDVWGQGTTVTVSS VL: DIQMTQSPSSLSASVGDRVTITCRASQGIRNDLGWYQQKPGKAPKRLIYAASSLQSGVPSRFSGSGSGTEFTLTISSLQPEDFATYYCQQHNSYPWTFGQGTKVEIKR", "Value units": "fold over CD3", "Proliferation (Fold over CD3)": 55}
{"Binder": "33C9v2 (antibody, human IgG1, kappa, V domains shown, Engineered variant; also called Ab51; SS-13808) VH: QVQVVESGGGVVQPGRSLRLSCAASGFTFSSYGMHWVRQAPGKGLEWVSVIWYEGSNKYYAESVKGRFTISRDNSKNTLYLQMNSLRAEDTAVYYCARGGLLGYYYYYGMDVWGQGTTVTVSS VL: DIQMTQSPSSLSASVGDRVTITCRASQGIRNDLGWYQQKPGKAPKRLIYDASSLQSGVPSRFSGSGSGTEFTLTISSLQPEDFATYYCLQHHSYPWTFGQGTKVEIKR", "Value units": "fold over CD3", "Proliferation (Fold over CD3)": 2.9}

// next entry
Give the measured Proliferation (Fold over CD3) for 33C9 (antibody, human IgG1, kappa, V domains shown, Parental fully human antibody; also called Ab2; SS-12413) VH: QVQVVESGGGVVQPGRSLRLSCAASGFTFSSYGMHWVRQAPGKGLEWVSVIWYEGSNKYYADSVKGRFTISRDNSKNTLYLQMNSLRAEDTAVYYCARGGLLGYYYYYGMDVWGQGTTVTVSS VL: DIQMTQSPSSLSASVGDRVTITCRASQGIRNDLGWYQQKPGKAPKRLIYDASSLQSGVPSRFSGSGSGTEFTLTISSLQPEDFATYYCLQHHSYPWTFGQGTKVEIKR 2.7
